# Test system: ABUTH (Velvetleaf)
# measurement_description: Preemergence herbicidal evaluation
# Format: in vivo, Abutilon theophrasti
# conditions: rate 0.1250 kg/ha; rated 4-5 weeks after treatment
readout: ABUTH preemergence herbicidal rating

Previously resolved entries follow.
compound	ABUTH preemergence herbicidal rating
CCC1SC(=Nc2cc(-n3c(=O)cc(C(F)(F)F)n(C)c3=O)c(F)cc2Cl)N(C)C1=O (stereo not shown)	9.0
CCOC(=O)CN1C(=O)C(CC)SC1=Nc1cc(-n2c(=O)cc(C(F)(F)F)n(C)c2=O)c(F)cc1Cl (stereo not shown)	9.0
CC1SC(=Nc2cc(N3C(=O)C4=C(CCCC4)C3=O)c(F)cc2Cl)N(C)C1=O (stereo not shown)	0.0

# context switch: different compound, same ABUTH preemergence herbicidal rating
Input: Please look up its ABUTH preemergence herbicidal rating: CCOC(=O)CN1C(=O)C(=C(C)C)S/C1=N/c1cc(-n2c(=O)cc(C(F)(F)F)n(C)c2=O)c(F)cc1Cl
Output: 9.0
